B1: PDLIM4 (parent)
chain: FLDERLYCESHAKARVKPPEGYDV

- Variants of: B1
- EXPERIMENT: protein stability index of a GFP-peptide fusion (GPS, HEK-293T) (PSI 1-6); higher = more stable;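 further: lentivirally expressed fusions sorted by FACS into six bins by GFP to DsRed ratio, PSI derived from sequencing read proportions per bin multiplied by bin number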
- COND: c terminus: a fixed tail appended
Label scheme for protein stability index: lower than 2 is 0, 2 and above is 1.

Check out these entries, answers already filled in.
// query Quick check: does `P18Q` have protein stability index greater than or equal to 2?
// result 1

// query Hi team, for `G21H` , is the recorded protein stability index at or above 2?
// result 0

// query # check: protein stability index of `G21F` is greater than or equal to 2
// result 0

// query Determine whether this variant has protein stability index no lower than 2: `V24Q`
// result 0

// query Kindly determine if protein stability index recorded for `F1V` is above or exactly 2.
// result 1

Others:
// query Test whether the variant `Y22P` records protein stability index of 2 or higher.
// result 1
